Tested on: PC15
Test: qHTS profiling for inhibitors of Plasmodium falciparum proliferation (AID 504749); further: nearly all actives have a fitted effect of over 60% in size
Details: P. falciparum in erythrocytes, SYBR Green DNA, 72 h; series mostly up to 28.7 µM
Results filed as inconclusive are left out. Activity calls are given as the source filed them. The call rests on the fitted dose curve; in most records, active means well fitted inhibition curve with a large enough effect; inconclusive means small, poorly fitted or top-dose-only effect; inactive means flat fitted curve, though single readings scatter.
Please state which outcome applies, choosing from active, inactive

Compound: CN1C(=O)CN=C(c2ccccc2)c2cc([N+](=O)[O-])ccc21
Group: inactive
//
Compound: NCc1cccnc1
Group: inactive
//
Compound: O=C(CCCN1CCC(n2c(=O)[nH]c3ccccc32)CC1)c1ccc(F)cc1
Group: active
//
Compound: CN1C[C@@H](NS(=O)(=O)N(C)C)C[C@@H]2c3cccc4c3c(cn4C)C[C@H]21
Group: inactive
//
Compound: CCN(CC)C(C)C(=O)c1ccccc1 (centres undefined)
Group: inactive
//
Compound: COCC(=O)N(c1c(C)cccc1C)C(C)C(=O)OC (centres undefined)
Group: inactive
//
Compound: CC(C)NCC(O)c1ccc(N)c(C#N)c1 (centres undefined)
Group: inactive
//
Compound: CC(C)(C)OC(=O)c1ncn2c1[C@@H]1CCCN1C(=O)c1c(Br)cccc1-2
Group: inactive

Here is another compound to look at.
In: Which result was noted for this compound in the test: CCCCCCCCC(=O)NCc1ccc(O)c(OC)c1
Out: inactive

----------
Test system: MKL-2
Experiment: qHTS assay to identify novel small-molecules to repurpose for Merkel cell carcinoma treatment (AID 1296009); further: nearly all actives have a fitted effect of over 60% in size
Conditions: MCC and control cell lines, CellTiter-Glo viability, 72 h; series mostly up to 46 µM
Records with an inconclusive call do not appear. Activity calls are given as the source filed them. The call rests on the fitted dose curve; in most records, active means well fitted inhibition curve with a large enough effect; inconclusive means small, poorly fitted or top-dose-only effect; inactive means flat fitted curve, though single readings scatter.
Please state which outcome applies, choosing from label 1 = active, label 0 = inactive

Compound: Oc1c(Br)cc(Br)cc1Br
Target Desc: MKL-2
Group: label 0
--
Compound: COc1cc(CC(C)N)cc2c1OCO2 (stereo unspecified)
Target Desc: MKL-2
Group: label 0
--
Compound: O=C1CN2CCOC2(c2ccccc2Cl)c2cc(Cl)ccc2N1 (stereo unspecified)
Target Desc: MKL-2
Group: label 0
--
Compound: CCC1(c2cccc(O)c2)CCCCN(C)C1 (stereo unspecified)
Target Desc: MKL-2
Group: label 0
--
Compound: O=C(O)c1nn(Cc2ccc(Cl)cc2Cl)c2ccccc12
Target Desc: MKL-2
Group: label 0
--
Compound: ClCc1cccc(Cl)c1
Target Desc: MKL-2
Group: label 0

In: Which result was noted for this compound in the test: CN1CCc2cc(Cl)c(O)cc2[C@H]2c3ccccc3CC[C@@H]21
Out: label 0

In: Which result was noted for this compound in the test: C[C@@H]1CC[C@H]2[C@@H](C)C(=O)O[C@@H]3O[C@@]4(C)CC[C@@H]1[C@]32OO4
Out: label 0

In: Which result was noted for this compound in the test: Nc1ccc(Cl)cc1C(=O)c1ccccc1F
Out: label 0

In: Which result was noted for this compound in the test: O=C1NCN(c2ccccc2)C12CCN(CCCOc1ccc(F)cc1)CC2
Out: label 0

In: Which result was noted for this compound in the test: CN1C2CCC(C)(C)C1CC(OC(=O)C(O)(c1cccs1)c1cccs1)C2 (stereo unspecified)
Out: label 0

----------
Assay: qHTS of pediatric cancer cell lines to identify multiple opportunities for drug repurposing: Confirmatory screen for A673 cells (AID 1347110);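 further: cells exposed to compound for 48 h before the viability read; nearly all actives have a fitted effect of over 65% in size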
Conditions: A673 Ewing sarcoma cell viability; series mostly up to 45.9 µM
Experimental: Drug repurposing or repositioning has been offered as a strategy for drug development in oncology programs. […] [1] Shen, M et al. Quantitative high-throughput phenotypic screening of pediatric cancer cell lines identifies multiple opportunities for drug repurposing. […] Cells were assayed in growth media at a density of 500-1,000 cells/well. […] After a 15min incubation at room temperature, samples were analyzed for luminescence intensity using a ViewLux High-throughput CCD imager equipped with clear filters.
Inconclusive results are not listed. The source made the active and inactive calls. Calls come from the whole dose curve; as a rule, active = well fitted cell-killing curve with a large enough effect; inconclusive = small, poorly fitted or top-dose-only effect; inactive = flat fitted curve, though single readings scatter.
Please state which outcome applies, choosing from active, inactive

Observe how each entry below is paired with its result.
Compound: Cc1ccc([N+](=O)[O-])[c]2c1[O][Hg]2
Group: active

Compound: COc1ccc(C(=O)N2CCCC2=O)cc1
Group: inactive

Here is another molecule to look at.
In: Which result was noted for this molecule in the test: O=C(O)Cc1ccccc1
Out: inactive
